Here, each record is paired with measured melting point data.

Solved entries (count: 5):
INSERT INTO measurements (smiles_string, value) VALUES
  ('CC(C)(CO)OCc1nn(Cc2ccccc2)c2ccccc12', '52 to 53 °C'),
  ('Cc1cc(Cl)ccc1Cn1nc(C(C)(C)O)c2ccccc21', '72 to 74 °C'),
  ('OCCOCc1nn(Cc2ccccc2)c2ccccc12', '67 to 69 °C'),
  ('COc1ccc(Cn2nc(CO)c3ccccc32)cc1', '95 to 97 °C'),
  ('CC(C)(CN1CCOCC1)OCc1nn(Cc2ccccc2)c2ccccc12.O=C(O)/C=C\C(=O)O', '87 to 88 °C');

Here is the next item to consider.
Fill blank: measured melting point of the compound `COc1ccc2c(c1)c(CO)nn2Cc1ccccc1` is ____.
97 to 98 °C

Cited source: patent US9255073B2
